# Read-out: CD40, CD40 (gene 958)
# experiment description: BSK_LPS_CD40: BioMAP Diversity Plus: LPS Assay for CD40 Biomarker Activity (AID 2283076)
# study conditions: primary human HUVEC with PBMC; actives raise or lower the signal
Calls of active or inactive are those of the source. Rule for the calls: active = hit-call score of the fitted dose curve at least 0.9, where 1 is the maximum; inactive = score below 0.9.
Labels: active, inactive

molecule	category
CO/N=C(/C1=NOCCO1)c1ccccc1Oc1ncnc(Oc2ccccc2Cl)c1F	active
O=C1C2CC=CCC2C(=O)N1SC(Cl)(Cl)Cl (stereo not given)	active
Nc1c(Cl)c(Cl)nc(C(=O)O)c1Cl	inactive
COP(=O)(OC)O/C(C)=C/C(=O)N(C)C	inactive
CS(=O)(=O)c1ccc(C(=O)C2C(=O)CCCC2=O)c([N+](=O)[O-])c1	inactive
Nc1cnn(-c2ccccc2)c(=O)c1Cl	inactive
CCOC(=O)C(C)OC(=O)c1cc(Oc2ccc(C(F)(F)F)cc2Cl)ccc1[N+](=O)[O-] (stereo not given)	inactive
CC(C)NC(=O)N1CC(=O)N(c2cc(Cl)cc(Cl)c2)C1=O	inactive
Cc1c(COC(=O)[C@@H]2[C@H](/C=C(\Cl)C(F)(F)F)C2(C)C)cccc1-c1ccccc1	inactive
OC(c1ccc(Cl)cc1)(c1ccc(Cl)cc1)C(Cl)(Cl)Cl	active
CCNC(=O)NC(=O)C(C#N)=NOC	inactive
CCOP(=S)(OCC)Oc1nc(Cl)n(C(C)C)n1	inactive
CN=C=S	inactive
CC1(C)C(C(=O)OC(C#N)c2cccc(Oc3ccccc3)c2)C1(C)C (stereo not given)	active
COC(=O)NS(=O)(=O)c1ccc(N)cc1	inactive
CCCCC(O)(Cn1cncn1)c1ccc(Cl)cc1Cl (stereo not given)	inactive
CCOc1nc(F)cc2nc(S(=O)(=O)Nc3c(Cl)cccc3Cl)nn12	inactive
COc1cc(Cl)c(OC)cc1Cl	inactive
CCCCOCN(C(=O)CCl)c1c(CC)cccc1CC	active
CC(C)=CC1C(C(=O)OCc2coc(Cc3ccccc3)c2)C1(C)C (stereo not given)	inactive
